// data source = paper PMC9727190

target: LAQ-1 (Lelliottia amnigena, UniProt A0A8F5JT47)
Sequence (A0A8F5JT47 entry or part of it): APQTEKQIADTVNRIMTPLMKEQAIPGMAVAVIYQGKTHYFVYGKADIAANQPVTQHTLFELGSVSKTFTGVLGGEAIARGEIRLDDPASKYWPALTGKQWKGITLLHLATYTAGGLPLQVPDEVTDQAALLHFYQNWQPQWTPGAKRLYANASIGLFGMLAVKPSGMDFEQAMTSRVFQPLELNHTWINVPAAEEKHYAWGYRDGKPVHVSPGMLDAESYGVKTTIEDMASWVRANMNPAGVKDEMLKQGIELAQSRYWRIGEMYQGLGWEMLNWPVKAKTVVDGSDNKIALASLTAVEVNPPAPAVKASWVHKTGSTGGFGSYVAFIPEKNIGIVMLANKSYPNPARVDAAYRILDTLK
# IC50 listing for each entry below
Numeric answer only, unit µM assumed.

compound	tgt	unitAbbrev	IC50
Nc1nc2c(ncn2[C@@H]2O[C@H](COP(=O)(O)O)[C@@H](O)[C@H]2O)c(=O)[nH]1 [GMP]	LAQ-1 (Lelliottia amnigena, UniProt A0A8F5JT47)	µM	2.63

Could you now look at the following compound, please?
Enquiry: Which IC50 value belongs to NC(=O)[C@@H]1CC[C@@H]2CN1C(=O)N2OS(=O)(=O)O [avibactam] ?
Return: 0.00145
